Test: Thermal stability of compounds at 60° C. (HPLC content of raw material and 2% premix)
Format: physicochemical
Settings: Raw material, Day 10, relative to Day 0
I'd appreciate it if you could supply Detection result of the content of test sample (%) Day 10 values for the items below.
Give bare numbers, in %.

For each of the molecules below, note its Detection result of the content of test sample (%) Day 10.
1. CCOC(=O)CC(NC(N)=O)C(=O)OCC (racemic) [Compound 2, diethyl N-carbamoyl-DL-aspartate]
2. NCCCCCCCCCC(=O)NC(CC(=O)O)C(=O)O (racemic)
3. NC(=O)NC(CC(=O)O)C(=O)O (racemic)

1: 96.97; 2: 96.73; 3: 99.28

For each of the molecules below, note its Detection result of the content of test sample (%) Day 10.
1. NCCCCCCCCCCCCCC(=O)NC(CC(=O)O)C(=O)O (racemic)
2. NC(=O)NC(CC(=O)[O-])C(=O)[O-].[Ca+2] (racemic) [Compound 4, Calcium N-carbamoyl-DL-aspartate]
3. NC(=O)NC(CC(=O)[O-])C(=O)[O-].[Cu+2] (racemic) [Compound 6, Copper N-carbamoyl-DL-aspartate]
4. NC(=O)NC(CC(=O)[O-])C(=O)[O-].[Na+].[Na+] (racemic) [Compound 3, Sodium N-carbamoyl-DL-aspartate]
5. NC(=O)NC(CC(=O)[O-])C(=O)[O-].[Fe+2] (racemic) [Compound 7, Iron N-carbamoyl-DL-aspartate]
6. NCC(=O)NC(CC(=O)O)C(=O)O (racemic)
7. NC(=O)NC(CC(=O)[O-])C(=O)[O-].[Zn+2] (racemic) [Compound 5, Zinc N-carbamoyl-DL-aspartate]
8. NCCCC(=O)NC(CC(=O)O)C(=O)O (racemic)

95.93
101.87
98.31
103.53
96.01
98.02
98.47
98.09

----------
Test system: grass carps
Assay: Use of aspartic acid derivatives in feeds for fish (grass carp breeding test)
Type: in vivo
Conditions: grass carps, 3000 ppm in feed, 8 weeks
Marks after values point to notes of the source that are not given here.
I'd appreciate it if you could supply FCR values for the items below.

Reference set, count: 2
>  <Molecule>
NCCCC(=O)NC(CC(=O)O)C(=O)O (racemic)

>  <Measured Target>
grass carps

>  <FCR>
1.662 ± 0.008^b

$$$$
>  <Molecule>
NCC(=O)NC(CC(=O)O)C(=O)O (racemic)

>  <Measured Target>
grass carps

>  <FCR>
1.671 ± 0.008^b

$$$$

Please turn your attention to the following entry.
Record request: FCR value, item NC(=O)NC(CC(=O)O)C(=O)O (racemic) 1.650 ± 0.011^b
